Molecular target: Human M4 (Homo sapiens, UniProt P08173)
Construct: expressed in transfected cells; host or cells: CHO-K1 (ATCC), stably expressing hM4 and Gqi5
Sequence (P08173 1-479): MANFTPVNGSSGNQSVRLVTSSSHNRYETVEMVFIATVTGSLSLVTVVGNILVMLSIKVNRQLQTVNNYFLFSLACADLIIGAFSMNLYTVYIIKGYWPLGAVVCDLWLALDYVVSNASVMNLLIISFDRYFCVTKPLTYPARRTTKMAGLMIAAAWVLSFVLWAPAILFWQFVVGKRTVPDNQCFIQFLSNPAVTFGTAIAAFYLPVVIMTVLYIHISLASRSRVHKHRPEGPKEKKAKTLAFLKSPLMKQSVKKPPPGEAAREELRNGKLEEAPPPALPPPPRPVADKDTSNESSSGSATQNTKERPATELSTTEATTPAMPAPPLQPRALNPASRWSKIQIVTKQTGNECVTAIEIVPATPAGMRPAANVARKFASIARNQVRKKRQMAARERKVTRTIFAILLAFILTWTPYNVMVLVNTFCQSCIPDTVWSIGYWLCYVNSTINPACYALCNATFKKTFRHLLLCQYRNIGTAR
Assay: mAChR M4 cell-based functional assay (calcium flux, potentiation of EC20 acetylcholine response in CHO-K1 hM4-Gqi5 cells)
Conditions: positive allosteric modulator mode, EC20 acetylcholine; CHO-K1 cells with human M4 and Gqi5
pEC50: −log10 of the molar value.
Cut-off 6 on pEC50, inclusive. At or above means yes (1); below means no (0).

Here's what some known entries look like.
INSERT INTO measurements (smilesinput, classlabel) VALUES
  ('COc1ccc(CNC(=O)c2ccc3nnc(C)c(C)c3c2)cc1F', 'no (0)'),
  ('Cc1nnc2ccc(C(=O)NC3CN(c4ncc(C#N)cc4Cl)C3)cc2c1C', 'yes (1)'),
  ('Cc1nnc2ccc(C(=O)NC3CN(c4cc(Cl)ncc4Cl)C3)cc2c1C', 'yes (1)'),
  ('Cc1nnc2ccc(C(=O)NC3CN(c4ccc(F)cn4)C3)cc2c1C', 'no (0)'),
  ('Cc1nnc2ccc(C(=O)NC3CN(c4cnc(C5CC5)cn4)C3)cc2c1C', 'no (0)'),
  ('Cc1cc(C)c2cc(C(=O)NC3CN(c4ncc(OC(C)C)cn4)C3)ccc2n1', 'no (0)');

Query string: Reported pEC50 at or above 6? "Cc1nnc2ccc(C(=O)NC3CN(c4cccc(C(F)(F)F)n4)C3)cc2c1C"
Result string: no (0)

Query string: Does "COc1ccc(CNC(=O)c2ccc3nc(C)cc(C)c3c2)cc1F" have a reported pEC50 of at least 6?
Result string: no (0)

Query string: Does the reported pEC50 for "Cc1nnc2ccc(C(=O)NC3CN(c4ncc(C(F)(F)F)cn4)C3)cc2c1C" fall at or above the 6 mark?
Result string: no (0)

Query string: Is pEC50 at least 6? Consider "Cc1nnc2ccc(C(=O)NC3CN(c4ncc(F)cc4Cl)C3)cc2c1C"
Result string: yes (1)
